Where do these numbers come from? They come from patent US20120157401A1.

- procedure.details: Single-dose oral toxicity study in rats
- Format: in vivo
- applied.conditions: Sprague Dawley, rat, in vivo; rats, single oral gavage; read-out: NOAEL for 1 day of dosing
- Method: A battery of genotoxicity studies was also performed. […] The L23 vehicle was used. Because maximal exposure occurred at 100 mg/kg, this dose is considered the NOAEL for 1 day of dosing.
endpoint.name: NOAEL at 1 day (mg/kg)

compound | readout.value
COc1ccc(C2c3[nH]c4ccc(Cl)cc4c3CCN2C(=O)Oc2ccc(Cl)cc2)cc1 (racemic) [Compound #10] | 100

---

- Tested on: hypoxia-inducible endogenous VEGF expression
- procedure.details: Hypoxia-inducible endogenous VEGF expression ELISA in HeLa cells, dose-response EC50 (Table 3)
- Format: cell-based, human
- applied.conditions: Homo sapiens, HeLa, read-out: ELISA EC50 μM

compound | EC50
CN1CCN(CCCCCCOc2ccc(C3c4[nH]c5ccc(Cl)cc5c4CCN3C(=O)Oc3ccc(F)cc3)cc2)CC1 (centres unmarked) | < 0.008 µM
O=C(Oc1ccc(F)cc1)N1CCc2c([nH]c3ccc(Cl)cc23)C1c1ccc(OCCCCNCCO)cc1 (centres unmarked) | < 0.008 µM
O=C(Oc1ccc(F)cc1)N1CCc2c([nH]c3ccc(Cl)cc23)C1c1ccc(OCCCCCCN2CCCCC2)cc1 (centres unmarked) | < 0.008 µM
Cc1ccc(OC(=O)N2CCc3c([nH]c4ccc(Cl)cc34)C2c2ccc(OCC3CCCN(C)C3)cc2)cc1 (centres unmarked) | 0.008 to 0.04 µM
COCCCNCCCCOc1ccc(C2c3[nH]c4ccc(Cl)cc4c3CCN2C(=O)Oc2ccc(Cl)cc2)cc1 (centres unmarked) | 0.008 to 0.04 µM
COC(=O)[C@H]1CCCN1CCCOc1ccc(C2c3[nH]c4ccc(Cl)cc4c3CCN2C(=O)Oc2ccc(Cl)cc2)cc1 (some centres unmarked) | < 0.008 µM
CNCC(O)COc1ccc(C2c3[nH]c4ccc(Cl)cc4c3CCN2C(=O)Oc2ccc(Cl)cc2)cc1 (centres unmarked) | 0.04 to 0.2 µM
COc1ccc(OC(=O)N2CCc3c([nH]c4ccc(Cl)cc34)C2c2ccc(OCCCN(C)C)cc2)cc1 (centres unmarked) | 0.04 to 0.2 µM
CN(C)CCCOc1ccc(C2c3[nH]c4ccc(Cl)cc4c3CCN2C(=O)Oc2ccc(Br)cc2)cc1 (centres unmarked) | 0.008 to 0.04 µM
COc1ccc(OC(=O)N2CCc3c([nH]c4ccc(Cl)cc34)C2c2ccc(OCC(=O)N3CCN(CCCN(C)C)CC3)cc2)cc1 (centres unmarked) | > 1 µM
COc1ccc(OC(=O)N2CCc3c([nH]c4ccc(Cl)cc34)C2c2ccc(OCCC3CCCN3C)cc2)cc1 (centres unmarked) | 0.2 to 1 µM
Cc1ccc(OC(=O)N2CCc3c([nH]c4ccc(Cl)cc34)[C@@H]2c2ccc(OCCC(O)CN3CCOCC3)cc2)cc1 (some centres unmarked) | 0.04 to 0.2 µM
O=C(Oc1ccc(Cl)cc1)N1CCc2c([nH]c3ccc(Cl)cc23)C1c1ccc(OCCCN2CCN(CCO)CC2)cc1 (centres unmarked) | 0.008 to 0.04 µM
O=C(Oc1ccc(Cl)cc1)N1CCc2c([nH]c3ccc(Cl)cc23)C1c1ccc(OCCCN2CCCC2)cc1 (centres unmarked) | < 0.008 µM
